Recorded IC50, one value per entry.
Target: UniProt Q08881
Sequence (Q08881 1-620): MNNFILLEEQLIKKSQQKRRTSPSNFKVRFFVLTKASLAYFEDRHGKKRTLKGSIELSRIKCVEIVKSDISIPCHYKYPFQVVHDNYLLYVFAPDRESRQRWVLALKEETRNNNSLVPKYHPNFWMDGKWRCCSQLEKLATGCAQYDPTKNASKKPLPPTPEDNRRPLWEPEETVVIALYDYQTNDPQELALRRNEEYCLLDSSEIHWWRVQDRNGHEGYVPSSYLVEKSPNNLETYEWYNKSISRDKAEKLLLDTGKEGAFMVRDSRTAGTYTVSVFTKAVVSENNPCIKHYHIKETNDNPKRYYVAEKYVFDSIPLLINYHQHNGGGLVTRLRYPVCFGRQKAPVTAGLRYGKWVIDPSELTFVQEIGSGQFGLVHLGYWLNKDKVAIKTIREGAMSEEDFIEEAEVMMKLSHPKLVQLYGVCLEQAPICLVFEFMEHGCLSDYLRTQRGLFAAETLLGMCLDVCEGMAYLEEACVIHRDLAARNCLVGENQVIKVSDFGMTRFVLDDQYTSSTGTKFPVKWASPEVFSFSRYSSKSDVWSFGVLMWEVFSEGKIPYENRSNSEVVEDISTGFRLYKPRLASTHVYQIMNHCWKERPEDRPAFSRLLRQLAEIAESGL
Assay: Inhibition of a panel of kinases, in vitro HotSpot kinase assay: ITK
Format: biochemical
Conditions: D-compounds panel data; 1 μM ATP

Examples with their reported IC50 follow.
compound	measured-target	value-measured
CN1CCN(C(=O)c2ccc(Nc3nc(N[C@H]4CC[C@H](NC(=O)N(C)C)CC4)cnc3C(N)=O)cc2)CC1	UniProt Q08881	1000 to 10000 nM
CN(C)C(=O)N1CC[C@@H]2[C@H]1CCCN2c1cnc(C(N)=O)c(Nc2cnn(C)c2)n1 (racemic)	UniProt Q08881	1000 to 10000 nM
C[C@@H]1[C@H](NC(=O)c2ccc(C3CC3)cc2)CCCN1c1cnc(C(N)=O)c(Nc2ccc(N3CCN(C)CC3)cc2F)n1	UniProt Q08881	100 to 1000 nM
C[C@@H]1[C@H](NC(=O)N(C)C)CCCN1c1cnc(C(N)=O)c(Nc2ccc(C(=O)N3CCN(C)CC3)cc2)n1	UniProt Q08881	1000 to 10000 nM
Cc1nc2cc(C(=O)N[C@@H]3CCCN(c4cnc(C(N)=O)c(Nc5cnn(C)c5)n4)[C@@H]3C)ccc2o1	UniProt Q08881	100 to 1000 nM

Let's switch to this compound now.
Query: // fetch UniProt Q08881 IC50 for C[C@@H]1[C@H](NC(=O)c2ccc(C3CC3)cc2F)CCCN1c1cnc(C(N)=O)c(Nc2nc3c(s2)CN(C)CC3)n1
Reply: > 10000 nM

Reference source: patent US20210070748A1
